Origin of measurements: patent US20230107642A1

study_target: K-Ras G12C (Homo sapiens, UniProt P01116, G12C)
Construct: This protein contained 188 amino acids in total, including an N-terminal 6-Histidine tag; made in house; host or cells: E. coli BL21
protocol: CAF assay (% CAF; method in Example 7, not in this part)
Format: binding
protocol_conditions: 10 uM compound, 1 h incubation
Please enter 1.0 where % CAF @ 10 uM, 1h is greater than or equal to 70%, and 0.0 where it is lower.

Take a look at these entries with their results.
compound: C=CC(=O)N1C[C@H](C)N(c2nc(=O)n3c4c(c(-c5cc(Cl)c(F)cc5F)c(Cl)cc24)SC[C@@H]3CN2CCN(CC(F)F)CC2)C[C@H]1C
class_label: 0.0

compound: C=C(F)C(=O)N1C2CC(=O)CC1CN(c1nc(=O)n3c4c(c(-c5ccc(F)cc5F)c(C(F)(F)F)cc14)SCC3)C2
class_label: 0.0

compound: C=CC(=O)N1CCN(c2nc(=O)n3c4c(c(-c5ccc(F)cc5F)c(C(F)(F)F)cc24)SC[C@@H](N(C)CC(F)(F)F)C3)[C@@H](C)C1
class_label: 0.0

compound: C=CC(=O)N1[C@H](C)CN(c2nc(=O)n3c4c(c(-c5ccc(F)cc5F)c(C(F)(F)F)cc24)SC[C@H](N(C)C)C3)C[C@@H]1C
class_label: 0.0

compound: C=CC(=O)N1CCN(c2nc(=O)n3c4c(c(-c5ccc(F)cc5F)c(C(F)(F)F)cc24)SC[C@@H]3COC)CC1 (atropisomer, axis not shown) [Example 579]
class_label: 1.0

compound: C=CC(=O)N1CCN(c2nc(=O)n3c4c(c(-c5cc(Cl)c(F)cc5F)c(Cl)cc24)SC[C@@H]3CN2CCC3(CC2)COC3)[C@@H](C)C1 [Example 456]
class_label: 1.0

compound: C=CC(=O)N1CCN(c2nc(=O)n3c4c(c(-c5cc(Cl)c(F)cc5F)c(Cl)cc24)SC[C@H](OC)C3)CC1
class_label: 1.0

compound: C=CC(=O)N1[C@H](C)CN(c2nc(=O)n3c4c(c(-c5ccc(F)cc5F)c(C(F)(F)F)cc24)SC[C@@H]3CN2CCC3(CC2)COC3)C[C@@H]1C (atropisomer, axis not shown) [Example 577]
class_label: 1.0

Prompt: Does the reported % CAF @ 10 uM, 1h for C=CC(=O)N1C[C@H](C)N(c2nc(=O)n3c4c(c(-c5ccc(F)cc5F)c(C(F)(F)F)cc24)SC[C@@H]3COCCOC)C[C@H]1C (atropisomer, axis not shown) [Example 510] fall at or above the 70% mark?
Completion: 1.0

Prompt: Please indicate if the recorded % CAF @ 10 uM, 1h for "C=CC(=O)N1CCN(c2nc(=O)n3c4c(c(-c5cc(Cl)c(F)cc5F)c(Cl)cc24)SC[C@@H]3CN2CCn3c(nnc3C(F)(F)F)C2)[C@@H](C)C1" meets or exceeds 70%.
Completion: 0.0
